Test: Stability in aqueous medium (dimethyl sulfoxide/Dulbecco's Modified Eagle Medium) by UV-Vis spectroscopy
Type: physicochemical
Conditions: 5% dimethyl sulfoxide/95% Dulbecco's Modified Eagle Medium; time 24 h; band 358-400 nm (λmax in column head)
Catalogue of compounds with associated Relative variation of the maximum absorbance of the charge transfer bands
observable: Relative variation of the maximum absorbance of the charge transfer bands (%)

# compound, unitSpec, quantitativeReadout
data = [
    ("CC(=O)C1=C[CH]([Ru-]2([PH](c3ccccc3)(c3ccccc3)c3ccccc3)[n+]3ccccc3-c3cccc[n+]32)C=C1.O=S(=O)([O-])C(F)(F)F (stereo not drawn) [compound 5]", "%", "−3.0"),
    ("O=C(Cc1ccccc1)C1=C[CH]([Ru-]2([PH](c3ccccc3)(c3ccccc3)c3ccccc3)[n+]3ccccc3-c3cccc[n+]32)C=C1.O=S(=O)([O-])C(F)(F)F (stereo not drawn) [compound 9]", "%", "−0.2"),
    ("COc1cc[n+]2c(c1)-c1cc(O)cc[n+]1[Ru-]2([CH]1C=CC=C1)[PH](c1ccccc1)(c1ccccc1)c1ccccc1.O=S(=O)([O-])C(F)(F)F (stereo not drawn) [compound 10]", "%", "−5.0"),
]

###

Experiment: Stability in aqueous medium (dimethyl sulfoxide/Dulbecco's Modified Eagle Medium) by UV-Vis spectroscopy
Assay type: physicochemical
Conditions: 5% dimethyl sulfoxide/95% Dulbecco's Modified Eagle Medium; time 0.25 h; band 358-400 nm (λmax in column head)
Examples of compounds with documented Relative variation of the maximum absorbance of the charge transfer bands follow.
observable: Relative variation of the maximum absorbance of the charge transfer bands (%)

# compound, quantitativeReadout
rows = [
    ("COc1cc[n+]2c(c1)-c1cc(O)cc[n+]1[Ru-]2([CH]1C=CC=C1)[PH](c1ccccc1)(c1ccccc1)c1ccccc1.O=S(=O)([O-])C(F)(F)F (stereo not drawn)", "−0.8"),
    ("CC(=O)C1=C[CH]([Ru-]2([PH](c3ccccc3)(c3ccccc3)c3ccccc3)[n+]3ccccc3-c3cccc[n+]32)C=C1.O=S(=O)([O-])C(F)(F)F (stereo not drawn)", "−1.0"),
    ("NNC(=O)C1=C[CH]([Ru-]2([PH](c3ccccc3)(c3ccccc3)c3ccccc3)[n+]3ccccc3-c3cccc[n+]32)C=C1.O=S(=O)([O-])C(F)(F)F (stereo not drawn)", "−0.2"),
    ("O=C(Cc1ccccc1)C1=C[CH]([Ru-]2([PH](c3ccccc3)(c3ccccc3)c3ccccc3)[n+]3ccccc3-c3cccc[n+]32)C=C1.O=S(=O)([O-])C(F)(F)F (stereo not drawn)", "−0.7"),
    ("CCOC(=O)Oc1cc[n+]2c(c1)-c1cc(OC)cc[n+]1[Ru-]2([CH]1C=CC=C1)[PH](c1ccccc1)(c1ccccc1)c1ccccc1.O=S(=O)([O-])C(F)(F)F (stereo not drawn)", "−0.1"),
    ("CCC(=O)C1=C[CH]([Ru-]2([PH](c3ccccc3)(c3ccccc3)c3ccccc3)[n+]3ccccc3-c3cccc[n+]32)C=C1.O=S(=O)([O-])C(F)(F)F (stereo not drawn)", "−0.3"),
]

###

Test: Stability in organic medium (dimethyl sulfoxide) by UV-Vis spectroscopy
Assay type: physicochemical
Settings: time 2 h, band 357-425 nm (λmax in column head)
observable: Relative variation of the maximum absorbance of the charge transfer bands (%)

# compound, unitSpec, quantitativeReadout
measured = [
    ("CC(=O)C1=C[CH]([Ru-]2([PH](c3ccccc3)(c3ccccc3)c3ccccc3)[n+]3cccc4c5nccnc5c5ccc[n+]2c5c43)C=C1.O=S(=O)([O-])C(F)(F)F (stereo not drawn)", "%", "−0.3"),
    ("NNC(=O)C1=C[CH]([Ru-]2([PH](c3ccccc3)(c3ccccc3)c3ccccc3)[n+]3ccccc3-c3cccc[n+]32)C=C1.O=S(=O)([O-])C(F)(F)F (stereo not drawn)", "%", "−0.2"),
    ("CC(=O)C1=C[CH]([Ru-]2([PH](c3ccccc3)(c3ccccc3)c3ccccc3)[n+]3ccccc3-c3cccc[n+]32)C=C1.O=S(=O)([O-])C(F)(F)F (stereo not drawn)", "%", 0.3),
]

###

Assay: Stability in aqueous medium (dimethyl sulfoxide/Dulbecco's Modified Eagle Medium) by UV-Vis spectroscopy
Type: physicochemical
Conditions: 5% dimethyl sulfoxide/95% Dulbecco's Modified Eagle Medium; time 6 h; band 292-296 nm (λmax in column head)
observable: Relative variation of the maximum absorbance of the π→π* transitions (%)

# compound, unitSpec, quantitativeReadout
rows = [
    ("O=C(Cc1ccccc1)C1=C[CH]([Ru-]2([PH](c3ccccc3)(c3ccccc3)c3ccccc3)[n+]3ccccc3-c3cccc[n+]32)C=C1.O=S(=O)([O-])C(F)(F)F (stereo not drawn)", "%", "−0.5"),
    ("CC(=O)C1=C[CH]([Ru-]2([PH](c3ccccc3)(c3ccccc3)c3ccccc3)[n+]3ccccc3-c3cccc[n+]32)C=C1.O=S(=O)([O-])C(F)(F)F (stereo not drawn)", "%", 2.1),
    ("NNC(=O)C1=C[CH]([Ru-]2([PH](c3ccccc3)(c3ccccc3)c3ccccc3)[n+]3ccccc3-c3cccc[n+]32)C=C1.O=S(=O)([O-])C(F)(F)F (stereo not drawn)", "%", "−1.7"),
]

###

Assay: Stability in organic medium (dimethyl sulfoxide) by UV-Vis spectroscopy
Type: physicochemical
Settings: time 6 h, band 357-425 nm (λmax in column head)
observable: Relative variation of the maximum absorbance of the charge transfer bands (%)

# compound, quantitativeReadout
records = [
    ("COc1cc[n+]2c(c1)-c1cc(O)cc[n+]1[Ru-]2([CH]1C=CC=C1)[PH](c1ccccc1)(c1ccccc1)c1ccccc1.O=S(=O)([O-])C(F)(F)F (centres unmarked) [compound 10]", 3.1),
    ("CC(=O)C1=C[CH]([Ru-]2([PH](c3ccccc3)(c3ccccc3)c3ccccc3)[n+]3cccc4c5nccnc5c5ccc[n+]2c5c43)C=C1.O=S(=O)([O-])C(F)(F)F (centres unmarked) [compound 7]", "−0.4"),
    ("CC(=O)C1=C[CH]([Ru-]2([PH](c3ccccc3)(c3ccccc3)c3ccccc3)[n+]3cccc4ccc5ccc[n+]2c5c43)C=C1.O=S(=O)([O-])C(F)(F)F (centres unmarked) [compound 6]", "−0.3"),
    ("CC(=O)C1=C[CH]([Ru-]2([PH](c3ccccc3)(c3ccccc3)c3ccccc3)[n+]3ccccc3-c3cccc[n+]32)C=C1.O=S(=O)([O-])C(F)(F)F (centres unmarked) [compound 5]", 0.2),
    ("CCC(=O)C1=C[CH]([Ru-]2([PH](c3ccccc3)(c3ccccc3)c3ccccc3)[n+]3ccccc3-c3cccc[n+]32)C=C1.O=S(=O)([O-])C(F)(F)F (centres unmarked) [compound 8]", 0.3),
]

###

In this section, each of the molecules is paired with its reported Relative variation of the maximum absorbance of the charge transfer bands.
Experiment: Stability in aqueous medium (dimethyl sulfoxide/Dulbecco's Modified Eagle Medium) by UV-Vis spectroscopy
Format: physicochemical
Conditions: 5% dimethyl sulfoxide/95% Dulbecco's Modified Eagle Medium; time 5 h; band 358-400 nm (λmax in column head)
observable: Relative variation of the maximum absorbance of the charge transfer bands

# molecule, result
records = [
    ("CC(=O)C1=C[CH]([Ru-]2([PH](c3ccccc3)(c3ccccc3)c3ccccc3)[n+]3ccccc3-c3cccc[n+]32)C=C1.O=S(=O)([O-])C(F)(F)F (stereo not drawn) [compound 5]", "−5.1%"),
    ("O=C(Cc1ccccc1)C1=C[CH]([Ru-]2([PH](c3ccccc3)(c3ccccc3)c3ccccc3)[n+]3ccccc3-c3cccc[n+]32)C=C1.O=S(=O)([O-])C(F)(F)F (stereo not drawn) [compound 9]", "−1.6%"),
    ("CCC(=O)C1=C[CH]([Ru-]2([PH](c3ccccc3)(c3ccccc3)c3ccccc3)[n+]3ccccc3-c3cccc[n+]32)C=C1.O=S(=O)([O-])C(F)(F)F (stereo not drawn) [compound 8]", "−0.6%"),
    ("NNC(=O)C1=C[CH]([Ru-]2([PH](c3ccccc3)(c3ccccc3)c3ccccc3)[n+]3ccccc3-c3cccc[n+]32)C=C1.O=S(=O)([O-])C(F)(F)F (stereo not drawn) [compound 4]", "−2.1%"),
    ("CCOC(=O)Oc1cc[n+]2c(c1)-c1cc(OC)cc[n+]1[Ru-]2([CH]1C=CC=C1)[PH](c1ccccc1)(c1ccccc1)c1ccccc1.O=S(=O)([O-])C(F)(F)F (stereo not drawn) [compound 11]", "0.1%"),
    ("COc1cc[n+]2c(c1)-c1cc(O)cc[n+]1[Ru-]2([CH]1C=CC=C1)[PH](c1ccccc1)(c1ccccc1)c1ccccc1.O=S(=O)([O-])C(F)(F)F (stereo not drawn) [compound 10]", "−4.3%"),
]

###

Test: Stability in organic medium (dimethyl sulfoxide) by UV-Vis spectroscopy
Format: physicochemical
Details: time 1 h, band 289-300 nm (λmax in column head)
Below, each entry is listed with its recorded Relative variation of the maximum absorbance of the π→π* transitions.
observable: Relative variation of the maximum absorbance of the π→π* transitions (%)

# compound, quantitativeReadout
records = [
    ("NNC(=O)C1=C[CH]([Ru-]2([PH](c3ccccc3)(c3ccccc3)c3ccccc3)[n+]3ccccc3-c3cccc[n+]32)C=C1.O=S(=O)([O-])C(F)(F)F (centres unmarked)", 0.5),
    ("CC(=O)C1=C[CH]([Ru-]2([PH](c3ccccc3)(c3ccccc3)c3ccccc3)[n+]3ccccc3-c3cccc[n+]32)C=C1.O=S(=O)([O-])C(F)(F)F (centres unmarked)", "−0.3"),
    ("CCC(=O)C1=C[CH]([Ru-]2([PH](c3ccccc3)(c3ccccc3)c3ccccc3)[n+]3ccccc3-c3cccc[n+]32)C=C1.O=S(=O)([O-])C(F)(F)F (centres unmarked)", 0.1),
    ("O=C(Cc1ccccc1)C1=C[CH]([Ru-]2([PH](c3ccccc3)(c3ccccc3)c3ccccc3)[n+]3ccccc3-c3cccc[n+]32)C=C1.O=S(=O)([O-])C(F)(F)F (centres unmarked)", "−0.3"),
    ("COc1cc[n+]2c(c1)-c1cc(O)cc[n+]1[Ru-]2([CH]1C=CC=C1)[PH](c1ccccc1)(c1ccccc1)c1ccccc1.O=S(=O)([O-])C(F)(F)F (centres unmarked)", 0.9),
]
